Measured target: SARS-CoV-2 S1 (antigen of the Carterra SPR kinetics) (SARS-CoV-2, UniProt P0DTC2 16-685)
Protocol details: Carterra SPR
Recorded metric: koff (s⁻¹)

* 1-4 (antibody, V domains shown, also called variant 1-4) VH: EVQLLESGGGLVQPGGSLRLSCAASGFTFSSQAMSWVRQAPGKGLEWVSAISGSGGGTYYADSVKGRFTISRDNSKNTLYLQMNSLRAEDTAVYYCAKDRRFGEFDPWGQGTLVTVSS VL: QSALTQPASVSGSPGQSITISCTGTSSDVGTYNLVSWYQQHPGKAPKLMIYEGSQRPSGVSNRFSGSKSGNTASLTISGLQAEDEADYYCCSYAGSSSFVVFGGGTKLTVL | 0.124
* 1-5 (antibody, V domains shown, also called variant 1-5) VH: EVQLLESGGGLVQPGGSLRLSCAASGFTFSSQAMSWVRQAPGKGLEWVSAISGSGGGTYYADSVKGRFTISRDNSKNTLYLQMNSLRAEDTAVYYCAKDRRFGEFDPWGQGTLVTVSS VL: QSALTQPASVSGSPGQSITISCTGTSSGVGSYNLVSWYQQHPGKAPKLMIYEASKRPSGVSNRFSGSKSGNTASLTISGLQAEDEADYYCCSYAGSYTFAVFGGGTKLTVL | 0.054
* 1-10 (antibody, V domains shown, also called variant 1-10) VH: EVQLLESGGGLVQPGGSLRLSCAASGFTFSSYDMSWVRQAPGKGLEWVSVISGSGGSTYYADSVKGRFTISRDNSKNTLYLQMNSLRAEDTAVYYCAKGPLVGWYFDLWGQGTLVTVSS VL: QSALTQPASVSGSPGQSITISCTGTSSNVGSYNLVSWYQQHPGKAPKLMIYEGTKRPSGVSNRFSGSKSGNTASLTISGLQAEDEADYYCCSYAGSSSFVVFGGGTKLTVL | 0.147
* 1-27 (antibody, V domains shown, also called variant 1-27) VH: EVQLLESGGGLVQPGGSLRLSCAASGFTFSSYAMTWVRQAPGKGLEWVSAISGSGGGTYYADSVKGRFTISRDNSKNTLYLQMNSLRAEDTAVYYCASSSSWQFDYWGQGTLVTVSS VL: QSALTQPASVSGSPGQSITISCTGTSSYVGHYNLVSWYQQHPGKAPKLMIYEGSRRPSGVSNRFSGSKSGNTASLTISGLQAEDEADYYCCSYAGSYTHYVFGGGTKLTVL | 0.00285
* 1-30 (antibody, V domains shown, also called variant 1-30) VH: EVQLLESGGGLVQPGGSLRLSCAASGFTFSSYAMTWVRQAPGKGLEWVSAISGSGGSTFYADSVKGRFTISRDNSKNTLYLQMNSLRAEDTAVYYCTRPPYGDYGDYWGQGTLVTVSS VL: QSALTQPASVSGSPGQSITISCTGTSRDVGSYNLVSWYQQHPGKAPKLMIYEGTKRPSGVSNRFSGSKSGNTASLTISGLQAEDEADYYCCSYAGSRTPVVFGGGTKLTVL | 0.00164
* 1-29 (antibody, V domains shown, also called variant 1-29) VH: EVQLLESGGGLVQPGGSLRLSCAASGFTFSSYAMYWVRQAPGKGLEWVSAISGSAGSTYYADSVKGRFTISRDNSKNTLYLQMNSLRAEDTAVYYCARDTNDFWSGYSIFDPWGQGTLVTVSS VL: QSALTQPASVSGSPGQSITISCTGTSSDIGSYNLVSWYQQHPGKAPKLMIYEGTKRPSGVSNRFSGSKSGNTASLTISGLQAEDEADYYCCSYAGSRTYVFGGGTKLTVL | 0.00197
* 1-32 (antibody, V domains shown, also called variant 1-32) VH: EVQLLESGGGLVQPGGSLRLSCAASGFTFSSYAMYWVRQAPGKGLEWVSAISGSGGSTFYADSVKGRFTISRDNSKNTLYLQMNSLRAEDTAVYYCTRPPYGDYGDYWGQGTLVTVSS VL: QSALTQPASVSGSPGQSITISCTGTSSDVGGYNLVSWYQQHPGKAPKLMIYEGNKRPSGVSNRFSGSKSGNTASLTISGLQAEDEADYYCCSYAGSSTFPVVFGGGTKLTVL | 0.317
* 1-23 (antibody, V domains shown, also called variant 1-23) VH: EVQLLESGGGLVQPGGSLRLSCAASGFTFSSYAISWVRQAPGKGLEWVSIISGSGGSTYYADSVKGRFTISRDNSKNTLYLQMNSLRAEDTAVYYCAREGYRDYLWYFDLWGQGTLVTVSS VL: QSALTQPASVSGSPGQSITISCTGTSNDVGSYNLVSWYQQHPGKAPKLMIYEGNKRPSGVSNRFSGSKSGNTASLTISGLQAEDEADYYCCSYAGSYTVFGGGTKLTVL | 0.159
* 1-31 (antibody, V domains shown, also called variant 1-31) VH: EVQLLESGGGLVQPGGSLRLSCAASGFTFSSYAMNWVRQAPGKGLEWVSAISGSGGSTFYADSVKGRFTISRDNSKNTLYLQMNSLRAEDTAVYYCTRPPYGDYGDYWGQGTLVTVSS VL: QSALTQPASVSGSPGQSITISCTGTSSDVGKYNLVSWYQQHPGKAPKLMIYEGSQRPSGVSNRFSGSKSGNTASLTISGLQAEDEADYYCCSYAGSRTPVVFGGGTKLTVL | 0.000762
* 1-2 (antibody, V domains shown, also called variant 1-2) VH: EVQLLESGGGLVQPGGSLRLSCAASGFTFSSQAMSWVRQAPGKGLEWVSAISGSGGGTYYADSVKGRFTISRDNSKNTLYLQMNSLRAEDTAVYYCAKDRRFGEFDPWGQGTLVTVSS VL: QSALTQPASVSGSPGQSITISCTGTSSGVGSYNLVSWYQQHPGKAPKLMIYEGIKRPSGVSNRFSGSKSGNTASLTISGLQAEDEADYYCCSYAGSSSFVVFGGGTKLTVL | 0.0272
